Listed below: IC50 values for each entry.
target.entity: FAAH (Mus musculus)
Sequence (O08914 whole entry): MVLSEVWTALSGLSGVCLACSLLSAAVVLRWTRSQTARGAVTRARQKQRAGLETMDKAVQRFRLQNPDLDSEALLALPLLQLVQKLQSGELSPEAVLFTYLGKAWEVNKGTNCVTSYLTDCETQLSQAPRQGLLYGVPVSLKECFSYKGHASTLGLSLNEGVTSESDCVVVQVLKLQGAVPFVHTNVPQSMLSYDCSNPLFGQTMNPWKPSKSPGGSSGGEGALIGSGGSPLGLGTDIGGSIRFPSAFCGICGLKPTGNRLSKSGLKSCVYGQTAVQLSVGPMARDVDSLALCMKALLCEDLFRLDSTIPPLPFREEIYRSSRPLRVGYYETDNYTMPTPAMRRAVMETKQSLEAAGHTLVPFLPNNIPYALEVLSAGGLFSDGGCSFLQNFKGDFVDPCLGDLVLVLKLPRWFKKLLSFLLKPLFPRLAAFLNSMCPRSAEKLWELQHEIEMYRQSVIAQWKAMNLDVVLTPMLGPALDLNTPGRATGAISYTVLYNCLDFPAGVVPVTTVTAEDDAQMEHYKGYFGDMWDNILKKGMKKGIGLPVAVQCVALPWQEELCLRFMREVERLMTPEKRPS
procedure.text: biochemical
condition.label: in vitro competitive ABPP

The cases that follow already have their IC50 on record.
1. CCn1ncc(CN2CC3CN(C(=O)OC(C(F)(F)F)C(F)(F)F)CC3C2)c1C(=O)NC1CC1 (stereo not shown)	> 10000 nM
2. O=C(OC(C(F)(F)F)C(F)(F)F)N1CC2CN(Cc3cc(CN4CCCC4)ccc3OC(F)(F)F)CC2C1 (stereo not shown)	1000 to 10000 nM
3. CC(C)n1cc(CN2CC3CN(C(=O)OC(C(F)(F)F)C(F)(F)F)CC3C2)c(-c2ccccc2Cl)n1 (stereo not shown)	> 10000 nM
4. Cn1cc(CN2CC3CN(C(=O)OC(C(F)(F)F)C(F)(F)F)CC3C2)c(-c2ccccc2)n1 (stereo not shown)	1000 to 10000 nM
5. CS(=O)(=O)N1CCC2(CCN(c3ccccc3CN3CC4CN(C(=O)OC(C(F)(F)F)C(F)(F)F)CC4C3)C2)C1 (stereo not shown)	1000 to 10000 nM

For the record O=C(ON1C(=O)CCC1=O)N1CC2CN(Cc3cccc(-c4ccccc4)c3)CC2C1 (stereo not shown) , what value of IC50 is listed for FAAH (Mus musculus)? 100 to 1000 nM

Can you check Cc1ccc(CN2CC3CN(C(=O)OC(C(F)(F)F)C(F)(F)F)CC3C2)cc1-c1ccccc1 (stereo not shown) next? 1000 to 10000 nM
